Measured pIC50 of individual entries
- Target Desc: biotinylated human PCSK9 (UniProt Q8NBP7 31-692, biotinylated (sites not given))
- Test Protocol: competition binding ELISA (PCSK9-LDLR)
Please keep in mind that pIC50 is minus log10 of the molar concentration; only the number is needed.

Binder	Measured Attribute	Result Number
YW508.20b (antibody, V domains shown) VH: EVQLVESGGGLVQPGGSLRLSCAASGFTFTGYAIHWVRQAPGKGLEWVARISPANGNTNYADSVKGRFTISADTSKNTAYLQMNSLRAEDTAVYYCARWIGSRELYIMDYWGQGTLVTVSS VL: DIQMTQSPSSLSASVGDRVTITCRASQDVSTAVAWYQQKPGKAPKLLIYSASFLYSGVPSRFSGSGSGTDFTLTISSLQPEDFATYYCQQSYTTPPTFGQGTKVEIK	pIC50	7.82

Prompt: Requested read-out: pIC50. Entry: anti-PCSK9 antibody 508.20.28b (antibody, V domains shown) VH: EVQLVESGGGLVQPGGSLRLSCAASGFTFTRHTINWVRQAPGKGLEWVARISPANGNTNYADSVKGRFTISADTSKNTAYLQMNSLRAEDTAVYYCARWIGSRELYIMDYWGQGTLVTVSS VL: DIQMTQSPSSLSASVGDRVTITCRASQDVSTAVAWYQQKPGKAPKLLIYSASFLYSGVPSRFSGSGSGTDFTLTISSLQPEDFATYYCQQSYRIQPTFGQGTKVEIK
Response: 8.98

Prompt: Requested read-out: pIC50. Entry: YW508.20.33b reformatted into human IgG1 having a heavy chain with SEQ ID NO: 35 and a light chain with SEQ ID NO: 36 (antibody, V domains shown) VH: EVQLVESGGGLVQPGGSLRLSCAASGFTFSSTAIHWVRQAPGKGLEWVARISPANGNTNYADSVKGRFTISADTSKNTAYLQMNSLRAEDTAVYYCARWIGSRELYIMDYWGQGTLVTVSS VL: DIQMTQSPSSLSASVGDRVTITCRASQDVSTAVAWYQQKPGKAPKLLIYSASFLYSGVPSRFSGSGSGTDFTLTISSLQPEDFATYYCQQAYPALHTFGQGTKVEIKR
Response: 8.88

Origin of the recorded values: patent US20130344085A1
